Let's go through some recorded IC50 values for Flt4 (h) (Homo sapiens, UniProt P35916) together.

CNC(=O)N1CCN(Cc2ccnc(Nc3cc4ccccc4cn3)c2)CC1 = < 0.1 µM
O=C(CO)N1CCN(Cc2ccnc(Nc3cc4ccccc4cn3)c2)CC1 [Example 23B] = < 0.1 µM

Here's the next entry for you.
Quote IC50 with test system Flt4 (h) (Homo sapiens, UniProt P35916) for `Fc1ccc2cc(Nc3cc(CN4CCCC4)ccn3)ncc2c1`
< 0.1 µM

###

target: UniProt P35968
Sequence (P35968 20-1356): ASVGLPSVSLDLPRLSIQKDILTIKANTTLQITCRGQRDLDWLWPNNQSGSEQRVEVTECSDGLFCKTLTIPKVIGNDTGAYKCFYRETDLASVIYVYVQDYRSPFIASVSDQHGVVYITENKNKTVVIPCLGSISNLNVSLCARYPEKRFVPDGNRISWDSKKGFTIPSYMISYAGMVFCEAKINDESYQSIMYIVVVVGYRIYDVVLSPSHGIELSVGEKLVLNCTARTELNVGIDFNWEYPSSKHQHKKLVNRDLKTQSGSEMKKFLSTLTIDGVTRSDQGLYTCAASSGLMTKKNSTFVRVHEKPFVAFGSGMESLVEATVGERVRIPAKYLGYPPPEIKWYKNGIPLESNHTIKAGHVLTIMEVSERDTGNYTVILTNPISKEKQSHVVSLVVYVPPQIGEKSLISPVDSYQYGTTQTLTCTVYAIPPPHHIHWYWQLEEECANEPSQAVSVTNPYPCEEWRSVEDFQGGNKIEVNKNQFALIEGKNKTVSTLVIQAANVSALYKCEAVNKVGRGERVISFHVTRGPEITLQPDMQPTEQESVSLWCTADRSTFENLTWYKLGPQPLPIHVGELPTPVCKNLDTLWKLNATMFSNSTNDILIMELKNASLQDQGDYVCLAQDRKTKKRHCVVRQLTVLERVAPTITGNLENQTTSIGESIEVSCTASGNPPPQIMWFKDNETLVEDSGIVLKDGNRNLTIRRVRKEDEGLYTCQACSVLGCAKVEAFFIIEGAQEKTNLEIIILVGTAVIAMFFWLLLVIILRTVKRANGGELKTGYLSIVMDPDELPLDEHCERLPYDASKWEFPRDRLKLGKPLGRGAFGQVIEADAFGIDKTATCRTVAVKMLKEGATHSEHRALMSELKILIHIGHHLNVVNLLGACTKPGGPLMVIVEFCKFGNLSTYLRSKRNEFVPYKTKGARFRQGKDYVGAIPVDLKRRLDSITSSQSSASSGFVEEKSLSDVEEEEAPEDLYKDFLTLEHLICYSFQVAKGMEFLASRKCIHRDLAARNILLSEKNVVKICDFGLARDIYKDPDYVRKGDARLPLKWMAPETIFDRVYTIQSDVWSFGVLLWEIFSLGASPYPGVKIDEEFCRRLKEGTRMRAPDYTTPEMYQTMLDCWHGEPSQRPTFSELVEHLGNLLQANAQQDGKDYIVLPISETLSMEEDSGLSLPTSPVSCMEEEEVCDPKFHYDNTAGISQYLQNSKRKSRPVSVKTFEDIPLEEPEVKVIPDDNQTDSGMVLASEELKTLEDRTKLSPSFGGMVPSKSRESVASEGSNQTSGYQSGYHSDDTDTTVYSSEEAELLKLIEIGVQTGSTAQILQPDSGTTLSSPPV
measurement.kind: IC50

Look up and report measured IC50 (UniProt P35968) for the following compound: c1ccc2cc(Nc3cc(CN4CCCC4)ccn3)ncc2c1 [Example 1]
< 5 µM

###

# pIC50 annotations
Molecular target: Flt3 (h) (Homo sapiens, UniProt P36888)
Sequence (P36888 27-993): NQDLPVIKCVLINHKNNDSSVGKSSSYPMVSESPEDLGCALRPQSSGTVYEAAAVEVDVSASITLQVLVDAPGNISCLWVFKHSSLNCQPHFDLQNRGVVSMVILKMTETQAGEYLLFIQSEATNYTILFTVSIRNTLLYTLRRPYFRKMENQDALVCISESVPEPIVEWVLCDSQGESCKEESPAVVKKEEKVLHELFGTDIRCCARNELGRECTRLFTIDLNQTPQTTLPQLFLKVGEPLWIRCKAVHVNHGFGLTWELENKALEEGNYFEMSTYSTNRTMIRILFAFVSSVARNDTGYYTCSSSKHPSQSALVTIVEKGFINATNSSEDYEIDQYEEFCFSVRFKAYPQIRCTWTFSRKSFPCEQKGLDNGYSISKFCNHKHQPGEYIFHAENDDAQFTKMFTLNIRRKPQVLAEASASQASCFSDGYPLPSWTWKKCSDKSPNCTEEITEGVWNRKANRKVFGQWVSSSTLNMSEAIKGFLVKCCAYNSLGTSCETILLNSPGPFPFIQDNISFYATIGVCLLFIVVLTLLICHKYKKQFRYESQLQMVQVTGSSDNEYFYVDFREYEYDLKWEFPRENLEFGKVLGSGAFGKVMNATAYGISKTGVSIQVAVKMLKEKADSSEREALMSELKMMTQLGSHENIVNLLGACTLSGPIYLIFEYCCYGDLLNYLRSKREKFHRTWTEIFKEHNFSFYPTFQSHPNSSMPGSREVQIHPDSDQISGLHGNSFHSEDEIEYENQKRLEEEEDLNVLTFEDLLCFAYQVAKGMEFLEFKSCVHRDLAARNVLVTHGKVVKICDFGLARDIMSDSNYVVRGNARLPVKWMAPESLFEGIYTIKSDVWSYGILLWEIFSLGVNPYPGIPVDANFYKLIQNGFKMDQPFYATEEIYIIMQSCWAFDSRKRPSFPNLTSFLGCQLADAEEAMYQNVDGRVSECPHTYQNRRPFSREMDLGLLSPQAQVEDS
pIC50: −log10 of the molar value.

NC(=O)N1CCN(Cc2ccnc(Nc3cc4ccccc4cn3)c2)CC1 [Example 21C] = > 7.00
O=C(CO)N1CCN(Cc2ccnc(Nc3cc4ccccc4cn3)c2)CC1 [Example 23B] = > 7.00

Given the compound c1ccc2cc(Nc3cc(CN4CCNCC4)ccn3)ncc2c1 [Example 21B] , write its reported pIC50.
> 5.30

Return reported pIC50. Input compound: `COc1ccc2cnc(Nc3cc(CN4CCCC4)ccn3)cc2c1`
> 7.00

The measured values listed here are drawn from patent US8461339B2.
